- systemTested: T1, EsCas13d, nuclease-dead (Eubacterium siraeum, UniProt B0MS50, R295A;H300A;R849A;H854A)
- T1 sequence: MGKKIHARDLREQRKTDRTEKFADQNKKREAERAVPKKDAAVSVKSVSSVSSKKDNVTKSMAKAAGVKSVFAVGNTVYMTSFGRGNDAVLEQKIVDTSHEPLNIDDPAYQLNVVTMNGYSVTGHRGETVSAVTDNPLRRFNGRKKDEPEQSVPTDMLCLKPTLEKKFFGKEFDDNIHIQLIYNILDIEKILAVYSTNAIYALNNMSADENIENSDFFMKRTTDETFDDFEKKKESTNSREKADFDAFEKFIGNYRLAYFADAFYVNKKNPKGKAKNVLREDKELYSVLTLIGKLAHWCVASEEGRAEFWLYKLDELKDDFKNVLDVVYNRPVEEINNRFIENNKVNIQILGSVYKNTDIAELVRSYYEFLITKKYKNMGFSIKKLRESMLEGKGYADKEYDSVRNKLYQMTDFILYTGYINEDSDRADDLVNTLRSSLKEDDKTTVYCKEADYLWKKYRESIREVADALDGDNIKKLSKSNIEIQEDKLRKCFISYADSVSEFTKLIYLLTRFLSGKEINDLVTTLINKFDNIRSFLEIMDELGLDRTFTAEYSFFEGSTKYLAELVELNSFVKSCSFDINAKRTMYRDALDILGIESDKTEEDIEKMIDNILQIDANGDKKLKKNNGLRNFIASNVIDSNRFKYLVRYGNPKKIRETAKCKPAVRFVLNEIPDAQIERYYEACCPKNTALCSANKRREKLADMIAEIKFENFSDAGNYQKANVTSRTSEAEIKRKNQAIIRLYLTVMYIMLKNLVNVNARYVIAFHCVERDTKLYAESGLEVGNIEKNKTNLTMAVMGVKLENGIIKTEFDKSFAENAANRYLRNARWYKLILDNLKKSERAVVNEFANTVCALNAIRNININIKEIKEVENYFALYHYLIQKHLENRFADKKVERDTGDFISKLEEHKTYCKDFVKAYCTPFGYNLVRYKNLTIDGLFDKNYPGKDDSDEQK
- assayNotes: crRNA (strand 1, pre-loaded); Mg2+; 40 mM Tris-HCl pH 7.5, 150 mM NaCl, 6 mM MgCl2, 1 mM DTT, 0.1% Tween-20, 0.2 mg/ml BSA; 25 C; 10 min per concentration, then washed
- experimentalSetup: tags: His6-TwinStrep-SUMO cleaved; N-terminal SNAP kept (SNAP-Surface 488); label: 3' end held by stalled T7 RNA polymerase
# note: exactly 20 nM is not below, so it is criterion not met; use criterion met for Kd strictly under it

Please let me know if target 1 insC 3' of 15,insA 3' of 6 (mixed) RNA 1: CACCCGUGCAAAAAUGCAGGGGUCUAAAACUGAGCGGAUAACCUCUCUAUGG RNA 2: GGGAAUGGAUCCACAUCUACGAAUUCGUACCAUAGAGCAGGUUAUCCAGCUCACCGAGAUCGGAAGAGCACACGU shows Kd below 20 nM. criterion not met

Please let me know if target 1 MT 5'PFS GGC 3'PFS UAA (mixed) RNA 1: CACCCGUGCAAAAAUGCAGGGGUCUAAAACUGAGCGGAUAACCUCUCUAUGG RNA 2: GGGAAUGGAUCCACAUCUACGAAUUCGGCCCAUAGAGAGGUUAUCCGCUCAUAAAGAUCGGAAGAGCACACGU shows Kd below 20 nM. criterion not met

Please let me know if target 1 insA 3' of 22,insC 3' of 3 (mixed) RNA 1: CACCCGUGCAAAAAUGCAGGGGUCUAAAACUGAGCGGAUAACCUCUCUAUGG RNA 2: GGGAAUGGAUCCACAUCUACGAAUUCGUACACAUAGAGAGGUUAUCCGCUCCACCGAGAUCGGAAGAGCACACGU shows Kd below 20 nM. criterion met

Please let me know if target 3 U8C,A9G (mixed) RNA 1: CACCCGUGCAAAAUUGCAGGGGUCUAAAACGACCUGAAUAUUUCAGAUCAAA RNA 2: GGGAAUGGAUCCACAUCUACGAAUUCGUUUUUGAUCUGAAAUGCUCAGGUCUGCAGAUCGGAAGAGCACACGU shows Kd below 20 nM. criterion not met

Please let me know if target 2 MT 5'PFS GCC 3'PFS CUG (mixed) RNA 1: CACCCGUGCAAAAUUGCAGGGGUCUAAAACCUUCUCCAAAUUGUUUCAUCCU RNA 2: GGGAAUGGAUCCACAUCUACGAAUUCGCCAGGAUGAAACAAUUUGGAGAAGCUGAGAUCGGAAGAGCACACGU shows Kd below 20 nM. criterion met

Please let me know if target 2 MT 5'PFS GAG 3'PFS CUG (mixed) RNA 1: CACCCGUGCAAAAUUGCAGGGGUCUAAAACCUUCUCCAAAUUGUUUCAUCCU RNA 2: GGGAAUGGAUCCACAUCUACGAAUUCGAGAGGAUGAAACAAUUUGGAGAAGCUGAGAUCGGAAGAGCACACGU shows Kd below 20 nM. criterion met

Please let me know if target 1 insA 3' of 11,insC 3' of 11 (mixed) RNA 1: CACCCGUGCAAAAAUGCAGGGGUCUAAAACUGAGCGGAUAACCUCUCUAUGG RNA 2: GGGAAUGGAUCCACAUCUACGAAUUCGUACCAUAGAGAGGUACUAUCCGCUCACCGAGAUCGGAAGAGCACACGU shows Kd below 20 nM. criterion met

Please let me know if target 3 insA 3' of 3,insG 3' of 1 (mixed) RNA 1: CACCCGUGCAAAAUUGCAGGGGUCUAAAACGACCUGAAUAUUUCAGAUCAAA RNA 2: GGGAAUGGAUCCACAUCUACGAAUUCGUUUUUGAUCUGAAAUAUUCAGGAUCGUGCAGAUCGGAAGAGCACACGU shows Kd below 20 nM. criterion not met

Please let me know if target 1 A1U,A20C (mixed) RNA 1: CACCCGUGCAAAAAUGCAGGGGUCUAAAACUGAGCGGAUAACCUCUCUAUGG RNA 2: GGGAAUGGAUCCACAUCUACGAAUUCGUACCCUAGAGAGGUUAUCCGCUCUCCGAGAUCGGAAGAGCACACGU shows Kd below 20 nM. criterion not met

Please let me know if target 1 insC 3' of 18,insG 3' of 14 (mixed) RNA 1: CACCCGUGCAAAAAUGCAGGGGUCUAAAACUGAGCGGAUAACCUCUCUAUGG RNA 2: GGGAAUGGAUCCACAUCUACGAAUUCGUACCAUACGAGAGGGUUAUCCGCUCACCGAGAUCGGAAGAGCACACGU shows Kd below 20 nM. criterion not met

Please let me know if target 3 C1G,U21A (mixed) RNA 1: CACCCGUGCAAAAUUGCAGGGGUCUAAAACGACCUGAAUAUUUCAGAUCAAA RNA 2: GGGAAUGGAUCCACAUCUACGAAUUCGUUUAUGAUCUGAAAUAUUCAGGUGUGCAGAUCGGAAGAGCACACGU shows Kd below 20 nM. criterion not met

Please let me know if target 3 A5U,C6U (mixed) RNA 1: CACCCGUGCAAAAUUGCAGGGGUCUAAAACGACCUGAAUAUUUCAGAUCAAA RNA 2: GGGAAUGGAUCCACAUCUACGAAUUCGUUUUUGAUCUGAAAUAUUUUGGUCUGCAGAUCGGAAGAGCACACGU shows Kd below 20 nM. criterion not met

Please let me know if target 1 insA 3' of 4,insU 3' of 1 (mixed) RNA 1: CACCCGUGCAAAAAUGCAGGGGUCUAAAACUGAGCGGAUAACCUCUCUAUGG RNA 2: GGGAAUGGAUCCACAUCUACGAAUUCGUACCAUAGAGAGGUUAUCCGCAUCAUCCGAGAUCGGAAGAGCACACGU shows Kd below 20 nM. criterion met

Attribution: paper PMC10786891
